The measured values listed here are drawn from patent US8598154B2.

Target: Human Recombinant Glucocorticoid Receptor (Homo sapiens, UniProt P04150)
Construct: This GR was a full-length steroid hormone receptor likely to be associated with heat-shock and other endogenous proteins; host or cells: baculovirus-infected insect cells
Sequence (P04150 whole entry): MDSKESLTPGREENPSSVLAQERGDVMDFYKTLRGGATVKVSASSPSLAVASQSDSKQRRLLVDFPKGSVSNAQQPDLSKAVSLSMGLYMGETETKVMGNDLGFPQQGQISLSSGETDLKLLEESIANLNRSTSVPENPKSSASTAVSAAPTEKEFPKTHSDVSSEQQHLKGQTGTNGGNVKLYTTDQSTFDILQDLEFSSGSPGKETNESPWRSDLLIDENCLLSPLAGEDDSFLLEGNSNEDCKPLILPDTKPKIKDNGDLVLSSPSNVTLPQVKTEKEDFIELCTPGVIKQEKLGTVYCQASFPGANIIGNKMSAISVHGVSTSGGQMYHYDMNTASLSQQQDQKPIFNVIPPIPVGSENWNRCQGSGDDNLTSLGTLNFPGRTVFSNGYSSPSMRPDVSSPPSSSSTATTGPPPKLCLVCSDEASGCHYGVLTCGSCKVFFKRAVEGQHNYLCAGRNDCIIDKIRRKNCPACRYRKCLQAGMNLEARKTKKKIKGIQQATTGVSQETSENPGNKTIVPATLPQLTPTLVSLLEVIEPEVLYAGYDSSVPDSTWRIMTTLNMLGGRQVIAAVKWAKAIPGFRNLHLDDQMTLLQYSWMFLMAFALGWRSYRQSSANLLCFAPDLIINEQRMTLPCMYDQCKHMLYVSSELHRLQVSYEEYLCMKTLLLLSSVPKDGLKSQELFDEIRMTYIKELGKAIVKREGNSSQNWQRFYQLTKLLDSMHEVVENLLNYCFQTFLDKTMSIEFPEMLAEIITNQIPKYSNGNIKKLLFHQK
Assay: Glucocorticoid receptor binding displacement assay with 3H-dexamethasone
Details: displacement of 2.5 nM 3H-dexamethasone; Ki from IC50 by Cheng-Prusoff; read-out: GR Binding Ki
quantity.measured: Ki

# input What does the record list as Ki for `O=S(=O)(c1ccc(N2CCC2)nc1)N1CCC2=Cc3c(cnn3-c3ccc(F)cc3)C[C@]2(COC(F)F)C1` ?
# output > 1 nM

# input Then `O=S(=O)(c1ccc(N2CC[C@@H](O)C2)nc1)N1CCC2=Cc3c(cnn3-c3ccc(F)cc3)C[C@]2(CN2CC[C@H](O)C2)C1` ?
# output > 1 nM

# input Okay, and `COC[C@]12Cc3cnn(-c4ccc(F)cc4)c3C=C1CCN(S(=O)(=O)c1ccc(N3CCC3)nc1)C2` ?
# output 0.5 to 1 nM

# input Okay, and `COC[C@]12Cc3cnn(-c4ccc(F)cc4)c3C=C1CCN(S(=O)(=O)c1ccc(N3CC[C@@H](O)C3)nc1)C2` ?
# output > 1 nM

====

Target: Human Recombinant Glucocorticoid Receptor (Homo sapiens, UniProt P04150)
Construct: This GR was a full-length steroid hormone receptor likely to be associated with heat-shock and other endogenous proteins
Experiment: Glucocorticoid receptor binding displacement assay with 3H-dexamethasone
Settings: displacement of 2.5 nM 3H-dexamethasone; Ki from IC50 by Cheng-Prusoff; read-out: GR Binding Ki
quantity.measured: Ki

# input Name the reported Ki value associated with the molecule Cc1cc(COC[C@]23Cc4cnn(-c5ccc(F)cc5)c4C=C2CCN(S(=O)(=O)c2ccc(N4CC[C@@H](F)C4)nc2)C3)no1 [Example 35]
# output > 1 nM

# input Now this one: COC[C@]12Cc3cnn(-c4ccc(F)cc4)c3C=C1CCN(S(=O)(=O)c1cncc(N3CCOCC3)c1)C2 [Example 12]
# output > 1 nM

# input Same question, O=C(OCC1CC1)[C@]12Cc3cnn(-c4ccc(F)cc4)c3C=C1CCN(S(=O)(=O)c1ccc(C(F)(F)F)nc1)C2 [Example 58] this time
# output 0.5 to 1 nM

# input Please answer likewise for COC[C@]12Cc3cnn(-c4ccc(F)cc4)c3C=C1CCN(S(=O)(=O)c1cncc(N3CCC3)c1)C2 [Example 13]
# output < 0.5 nM

# input Subsequent entry: O=S(=O)(c1ccc(N2CC(F)C2)nc1)N1CCC2=Cc3c(cnn3-c3ccc(F)cc3)C[C@]2(COCC2CC2)C1 [Example 30]
# output < 0.5 nM

# input Now the molecule CCOC[C@]12Cc3cnn(-c4ccc(F)cc4)c3C=C1CCN(S(=O)(=O)c1cnc3c(c1)OCCN3C)C2 [Example 3]
# output < 0.5 nM

# input What do you get for COC[C@]12Cc3cnn(-c4ccc(F)cc4)c3C=C1CCN(S(=O)(=O)c1ccnc(N3CCCC3)c1)C2 [Example 42] ?
# output > 1 nM

# input Same question for O=S(=O)(c1ccc(N2CC[C@H](F)C2)nc1)N1CCC2=Cc3c(cnn3-c3ccc(F)cc3)C[C@]2(COCC2CC2)C1 [Example 27] please.
# output 0.5 to 1 nM

# input Now consider COC[C@]12Cc3cnn(-c4ccc(F)cc4)c3C=C1CCN(S(=O)(=O)c1ccnc(N3CC[C@H](O)C3)c1)C2 [Example 44] .
# output > 1 nM

# input Entry to check: O=C(OCCO)[C@]12Cc3cnn(-c4ccc(F)cc4)c3C=C1CCN(S(=O)(=O)c1ccc(N3CCOCC3)nc1)C2 [Example 55]
# output > 1 nM

# input Same question, O=S(=O)(c1ccc(N2CC[C@H](O)C2)nc1)N1CCC2=Cc3c(cnn3-c3ccc(F)cc3)C[C@]2(COCC2CC2)C1 [Example 29] this time
# output 0.5 to 1 nM

# input Follow-up item: CN(CCO)C[C@]12Cc3cnn(-c4ccc(F)cc4)c3C=C1CCN(S(=O)(=O)c1ccc(N3CCOCC3)nc1)C2 [Example 45]
# output > 1 nM

# input Another: CCOC[C@]12Cc3cnn(-c4ccc(F)cc4)c3C=C1CCN(S(=O)(=O)c1cccnc1)C2 [Example 2]
# output 0.5 to 1 nM

# input Also check COC[C@]12Cc3cnn(-c4ccc(F)cc4)c3C=C1CCN(S(=O)(=O)c1cncc(N3CC[C@H](O)C3)c1)C2 [Example 39]
# output 0.5 to 1 nM

# input Proceed to O=S(=O)(c1ccc(N2CCOCC2)nc1)N1CCC2=Cc3c(cnn3-c3ccc(F)cc3)C[C@]2(CN2CC[C@H](O)C2)C1 [Example 62]
# output > 1 nM

# input Entry to check: O=S(=O)(c1ccc(N2CCOCC2)nc1)N1CCC2=Cc3c(cnn3-c3ccc(F)cc3)C[C@]2(COCC2CC2)C1 [Example 32]
# output 0.5 to 1 nM

# input // query: O=C(OCC1CCC1)[C@]12Cc3cnn(-c4ccc(F)cc4)c3C=C1CCN(S(=O)(=O)c1ccc(N3CCOCC3)nc1)C2 [Example 52]
# output 0.5 to 1 nM

# input Also CCOC[C@]12Cc3cnn(-c4ccc(F)cc4)c3C=C1CCN(S(=O)(=O)c1ccc(N3CCCC3)nc1)C2 [Example 4] , if possible.
# output > 1 nM

# input Entry to check: Cc1cc(COC(=O)[C@]23Cc4cnn(-c5ccc(F)cc5)c4C=C2CCN(S(=O)(=O)c2ccc(N4CCOCC4)nc2)C3)no1 [Example 57]
# output 0.5 to 1 nM

# input Okay, and COCCOC[C@]12Cc3cnn(-c4ccc(F)cc4)c3C=C1CCN(S(=O)(=O)c1ccc(N3CCOCC3)nc1)C2 [Example 64] ?
# output 0.5 to 1 nM

# input How about COC[C@]12Cc3cnn(-c4ccc(F)cc4)c3C=C1CCN(S(=O)(=O)c1cncc(N3CC[C@@H](O)C3)c1)C2 [Example 38] ?
# output 0.5 to 1 nM

# input Do the same for O=S(=O)(c1ccc(N2CCOCC2)nc1)N1CCC2=Cc3c(cnn3-c3ccc(F)cc3)C[C@]2(CO)C1 [Example 1d] please
# output > 1 nM

# input CCOC[C@]12Cc3cnn(-c4ccc(F)cc4)c3C=C1CCN(S(=O)(=O)c1ccc(N3CCOCC3)nc1)C2 [Example 1] ?
# output < 0.5 nM

# input Moving on to CCOC[C@]12Cc3cnn(-c4ccc(F)cc4)c3C=C1CCN(S(=O)(=O)c1ccc(N3CCC3)nc1)C2 [Example 6]
# output 0.5 to 1 nM

# input Input O=S(=O)(c1ccc(N2CCOCC2)nc1)N1CCC2=Cc3c(cnn3-c3ccc(F)cc3)C[C@]2(CN2CC[C@@H](O)C2)C1 [Example 63]
# output > 1 nM

# input Next molecule: CCOC(=O)[C@]12Cc3cnn(-c4ccc(F)cc4)c3C=C1CCN(S(=O)(=O)c1ccc(N3CCOCC3)nc1)C2 [Example 48]
# output 0.5 to 1 nM

# input Also, COC[C@]12Cc3cnn(-c4ccc(F)cc4)c3C=C1CCN(S(=O)(=O)c1ccc(C(F)(F)F)nc1)C2 [Example 24] please.
# output > 1 nM
